Assay: Microsome clearance assay, mouse
Type: in vitro ADME
Details: mouse liver microsomes, 0.5 mg/ml protein, 5 μM, 1 mM NADPH, 60 minutes
experimental readout: Mouse Liver Microsome Clint (μL/min/mg protein)
Numbers only here, please. The scale is μL/min/mg protein.

Here is how some molecules turned out for Mouse Liver Microsome Clint (μL/min/mg protein).
molecule	result value
Cc1c(C(=O)O)n2c3ccc(Cl)c(c13)-c1c(nn(C)c1C)CSCc1cc(n(C)n1)CSc1cc(c3ccc(F)cc3c1)OCCC2 (atropisomer, axis not shown) [Cpd. No. 15]	28.0
Cc1c(C(=O)O)n2c3ccc(Cl)c(c13)-c1c(nn(C)c1C)CSCc1cc(n(C)n1)CSc1cc(c3ccccc3c1)OCCC2 (atropisomer, axis not shown) [Cpd. No. 6]	23.6
Cc1c(C(=O)O)n2c3ccc(Cl)c(c13)-c1c(nn(C)c1C)CSCc1cc(n(C)n1)CSc1cc(c3ccc(F)cc3c1)OCCC2 (atropisomer, axis not shown) [Cpd. No. 16]	135
Cc1c(C(=O)O)n2c3ccc(Cl)c(c13)-c1c(nn(C)c1C)CN(S(C)(=O)=O)Cc1cc(n(C)n1)CSc1cc(c3ccc(F)cc3c1)OCCC2 (atropisomer, axis not shown) [Cpd. No. 33]	16.0
Cc1c(C(=O)O)n2c3ccc(Cl)c(c13)-c1c(nn(C)c1C)CSCc1cc(n(C)n1)CSc1cc(c3ccc(F)cc3c1)OCCC2 [Cpd. No. 14]	28.6

For reference, reported Mouse Liver Microsome Clint (μL/min/mg protein) for Cc1c(C(=O)O)n2c3ccc(Cl)c(c13)-c1c(nn(C)c1C)CSCc1cc(n(C)n1)CSc1cc(c3ccccc3c1)OCCC2 (atropisomer, axis not shown) [Cpd. No. 7] stands at 245

For reference, reported Mouse Liver Microsome Clint (μL/min/mg protein) for Cc1c(C(=O)O)n2c3ccc(Cl)c(c13)-c1c(nn(C)c1C)CSCc1cc(n(C)n1)CSc1cc(c3ccccc3c1)OCCC2 [Cpd. No. 5] stands at 48.4

For reference, reported Mouse Liver Microsome Clint (μL/min/mg protein) for Cc1c(C(=O)O)n2c3ccc(Cl)c(c13)-c1c(nn(C)c1C)CN(S(C)(=O)=O)Cc1cc(n(C)n1)CSc1cc(c3ccc(F)cc3c1)OCCC2 [Cpd. No. 32] stands at 35.0

For reference, reported Mouse Liver Microsome Clint (μL/min/mg protein) for Cc1c(C(=O)O)n2c3ccc(Cl)c(c13)-c1c(nn(C)c1C)CN(S(C)(=O)=O)Cc1cc(n(C)n1)CSc1cc(c3ccc(F)cc3c1)OCCC2 [Cpd. No. 34] stands at 110
